# assay-target: VhCBP D365A
# experiment-description: ITC titration of VhCBP mutant D365A with (GlcNAc)2
# reported-conditions: ITC, D365A, 20 mM Tris-HCl pH 8.0, 25 °C, mean ± SD
quantity: pKd
Give bare numbers, as −log10 of the molar value.

CC(=O)N[C@H]1[C@H](O[C@H]2[C@H](O)[C@@H](NC(C)=O)C(O)O[C@@H]2CO)O[C@H](CO)[C@@H](O)[C@@H]1O (stereo partly shown) [(GlcNAc)2] yielded pKd of 1.19

###

# assay-target: VhCBP F411A
# experiment-description: ITC titration of VhCBP mutant F411A with (GlcNAc)2
# reported-conditions: ITC, F411A, 20 mM Tris-HCl pH 8.0, 25 °C, mean ± SD
quantity: Kd (nM)
Numbers only, in nM.

Entry CC(=O)N[C@H]1[C@H](O[C@H]2[C@H](O)[C@@H](NC(C)=O)C(O)O[C@@H]2CO)O[C@H](CO)[C@@H](O)[C@@H]1O (stereo partly shown) ; Kd = 400

###

# assay-target: VhCBP N204A
# experiment-description: ITC titration of VhCBP mutant N204A with (GlcNAc)2
# Assay type: binding
# reported-conditions: ITC, N204A, 20 mM Tris-HCl pH 8.0, 25 °C, mean ± SD
quantity: Kd (nM)
One number for each entry, in nM.

Sample CC(=O)N[C@H]1[C@H](O[C@H]2[C@H](O)[C@@H](NC(C)=O)C(O)O[C@@H]2CO)O[C@H](CO)[C@@H](O)[C@@H]1O (stereo partly shown) [(GlcNAc)2] ; Kd observed: 830

###

# assay-target: VhCBP W513A
# experiment-description: ITC titration of VhCBP mutant W513A with (GlcNAc)2
# reported-conditions: ITC, W513A ('half-open'/semiopen state), 20 mM Tris-HCl pH 8.0, 25 °C, mean ± SD
quantity: Kd (µM)
Answers are plain numbers, in µM.

Recorded result, CC(=O)N[C@H]1[C@H](O[C@H]2[C@H](O)[C@@H](NC(C)=O)C(O)O[C@@H]2CO)O[C@H](CO)[C@@H](O)[C@@H]1O (stereo partly shown) , Kd: 36.8

###

# assay-target: VhCBP S221A
# experiment-description: ITC titration of VhCBP mutant S221A with (GlcNAc)2
# reported-conditions: ITC, S221A, 20 mM Tris-HCl pH 8.0, 25 °C, mean ± SD
quantity: Kd (nM)
Numbers only, in nM.

The recorded Kd for CC(=O)N[C@H]1[C@H](O[C@H]2[C@H](O)[C@@H](NC(C)=O)C(O)O[C@@H]2CO)O[C@H](CO)[C@@H](O)[C@@H]1O (stereo partly shown) is 70

###

# assay-target: VhCBP N409A
# experiment-description: ITC titration of VhCBP mutant N409A with (GlcNAc)2
# reported-conditions: ITC, N409A, 20 mM Tris-HCl pH 8.0, 25 °C, mean ± SD
quantity: Kd (nM)
Give bare numbers, in nM.

Value of Kd reported for the molecule CC(=O)N[C@H]1[C@H](O[C@H]2[C@H](O)[C@@H](NC(C)=O)C(O)O[C@@H]2CO)O[C@H](CO)[C@@H](O)[C@@H]1O (stereo partly shown) is 450

###

# assay-target: VhCBP W363A
# experiment-description: ITC titration of VhCBP mutant W363A with (GlcNAc)2
# reported-conditions: ITC, W363A, 20 mM Tris-HCl pH 8.0, 25 °C, mean ± SD
quantity: pKd
Numbers only, as −log10 of the molar value.

Quick note, pKd for CC(=O)N[C@H]1[C@H](O[C@H]2[C@H](O)[C@@H](NC(C)=O)C(O)O[C@@H]2CO)O[C@H](CO)[C@@H](O)[C@@H]1O (stereo partly shown) landed at 4.10
